Reference source for all entries: BindingDB's records for doi:10.1021/bi049459m

target: Dimer of Gag-Pol polyprotein [489-587,K509R,V521I,L522F,M525I,L552P,A560V,V571A,L579M] (Human immunodeficiency virus 1, UniProt P04585, A560V/K509R/L522F/L552P/L579M/M525I/V521I/V571A); construct: 489-587; experiment: Protease Inhibition Assay; settings: pH 4.7; 37 °C
Measured Metric: Ki (nM)
Use nM as the unit, but write only the number.

Reported Ki for "Cc1ccccc1CNC(=O)[C@H]1N(C(=O)[C@@H](O)[C@H](Cc2ccccc2)NC(=O)c2cccc(O)c2C)CSC1(C)C" was 0.04

====

molecular target: Dimer of Gag-Pol polyprotein [489-587,K509R,V521I,L522F,M525I,I543V,L552P,A560V,V571A,L579M] (Human immunodeficiency virus 1, UniProt P04585, A560V/I543V/K509R/L522F/L552P/L579M/M525I/V521I/V571A); construct: 489-587; assay: Protease Inhibition Assay; settings: pH 4.7; 37 °C
Measured Metric: Ki (nM)
Entry rule: numbers only, all in nM.

// recorded Ki for "Cc1ccccc1CNC(=O)[C@H]1N(C(=O)[C@@H](O)[C@H](Cc2ccccc2)NC(=O)c2cccc(O)c2C)CSC1(C)C" : 0.19

====

molecular target: Dimer of Gag-Pol polyprotein [489-587,K509R,V521I,L522F,M525I,L552P,A560V,V571A,I573V,L579M] (Human immunodeficiency virus 1, UniProt P04585, A560V/I573V/K509R/L522F/L552P/L579M/M525I/V521I/V571A); construct: 489-587; experiment: Protease Inhibition Assay
Measured Metric: Ki (nM)
Express it in nM; write the number only.

The reported Ki of the molecule "Cc1ccccc1CNC(=O)[C@H]1N(C(=O)[C@@H](O)[C@H](Cc2ccccc2)NC(=O)c2cccc(O)c2C)CSC1(C)C" was 0.55

====

target: Dimer of Gag-Pol polyprotein [489-587,K509R,V521I,L522F,M525I,M535I,L552P,A560V,V571A,I573V,L579M] (Human immunodeficiency virus 1, UniProt P04585, A560V/I573V/K509R/L522F/L552P/L579M/M525I/M535I/V521I/V571A); construct: 489-587; test: Protease Inhibition Assay
Measured Metric: pKi
Recall that pKi is obtained by taking minus log10 of the concentration measured in molar.

Reported pKi for "Cc1ccccc1CNC(=O)[C@H]1N(C(=O)[C@@H](O)[C@H](Cc2ccccc2)NC(=O)c2cccc(O)c2C)CSC1(C)C" was 8.66
